FYI, the data here is from PubChem BioAssay AID504383.

System: Troponin I, cardiac muscle (Homo sapiens) + Troponin T, cardiac muscle (Homo sapiens) + Troponin C, slow skeletal and cardiac muscles (Homo sapiens) (UniProt P19429+P45379+P63316)
Protocol: cardiac RTF calcium sensitivity activators, confirmation, biochemical, IANBD-TnC fluorescence, triplicate (AID 504383);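 further: 0% = DMSO at 0.472 mM calcium and 100% = DMSO at 2.9 mM calcium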
Test context: IANBD-labeled cardiac RTF, Ca2+ sensitivity fluorescence; at 7.2 µM; hits give high values; scaled from EC20 to saturating calcium; tested at EC20 calcium, 0.472 mM
About 1,200 (48%) of roughly 2,500 compounds were called active. The set was probably picked from earlier hits. Some of the results follow.
Value kind: activation (%)

INSERT INTO assay_data (molecule, unit_text, numeric_readout) VALUES
  ('COc1ccc(Cl)cc1NC(=O)CN(C)C(=O)COc1ccccc1F', '%', 4.03),
  ('CCOc1ccccc1C(=O)NN1C(=O)CCC1=O', '%', 23.7),
  ('CCSc1cc(N2CCCC2)nc(-c2ccc(Cl)cc2)n1', '%', 6.74),
  ('N#C/C(=C/c1ccc(N2CCCCC2)o1)C(=O)Nc1ccc(Cl)cc1', '%', 111),
  ('Brc1ccc(C2=CC(c3cccs3)n3ncnc3N2)cc1 (stereo unspecified)', '%', 8.78),
  ('COC(C(=O)Nc1c(F)cccc1F)c1ccccc1 (stereo unspecified)', '%', 13.6);

* * *

System: Troponin I, cardiac muscle (Homo sapiens) + Troponin T, cardiac muscle (Homo sapiens) + Troponin C, slow skeletal and cardiac muscles (Homo sapiens) (UniProt P19429+P45379+P63316)
Protocol: cardiac RTF calcium sensitivity activators, confirmation, biochemical, IANBD-TnC fluorescence, triplicate (AID 504383);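 further: 0% = DMSO at 0.472 mM calcium and 100% = DMSO at 2.9 mM calcium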
Test context: IANBD-labeled cardiac RTF, Ca2+ sensitivity fluorescence; at 7.2 µM; hits give high values; scaled from EC20 to saturating calcium; tested at EC20 calcium, 0.472 mM
Out of some 2,500 compounds screened, about 1,200 (48%) were called active. So high a share suggests a set chosen from earlier hits. This is one part of the list.
Quick rule for you: activation at 10% or higher means YES, lower means NO.

INSERT INTO results (compound, class) VALUES
  ('Cc1cc(S(=O)(=O)Nc2c(C)nn(C)c2C)c(Cl)cc1Cl', 'YES'),
  ('C=CCn1c(=O)c(C(=O)NCCNCC)c(O)c2ccccc21', 'YES'),
  ('CCN(CC)c1ccc2cc(C(=O)Nc3ccccn3)c(=O)oc2c1', 'NO'),
  ('Cc1ccc(-c2csc(NC(=O)CSc3nc4ccccc4o3)n2)cc1', 'NO'),
  ('O=C(CSc1nc2ccccc2s1)NNC(=S)Nc1ccccc1', 'YES'),
  ('Cc1ccc(NC(=O)CSc2nnc(-c3cccnc3)s2)cc1', 'YES'),
  ('CCOC(=O)c1[nH]cnc1C(=O)Nc1ccccn1', 'YES'),
  ('CC(=O)n1cc(CO)c2ccccc21', 'YES'),
  ('O=C(CSc1nc2cc(Cl)ccc2s1)c1cc2ccccc2o1', 'YES'),
  ('Cc1cc(C(=O)COc2cccc3cccnc23)c(C)n1C', 'YES'),
  ('CC(C)(C)c1ccc(-c2n[nH]c(=S)n2CC2CCCO2)cc1 (configuration not stated)', 'YES'),
  ('Cc1ccccc1Nc1nnc(SCC(=O)c2cc3ccccc3o2)s1', 'NO'),
  ('O=C(CSc1nc2ccccc2s1)c1cc2ccccc2o1', 'YES'),
  ('CCC1(O)C(=O)OCc2c1cc1n(c2=O)Cc2cc3cc(O)ccc3nc2-1 (configuration not stated)', 'YES'),
  ('CN(Cc1ccccc1)C(=O)N1CCOCC1', 'YES'),
  ('COc1ccc2[nH]c3c(c2c1)CCNC3c1ccc([N+](=O)[O-])o1 (configuration not stated)', 'NO');

* * *

System: Troponin I, cardiac muscle (Homo sapiens) + Troponin T, cardiac muscle (Homo sapiens) + Troponin C, slow skeletal and cardiac muscles (Homo sapiens) (UniProt P19429+P45379+P63316)
Protocol: cardiac RTF calcium sensitivity activators, confirmation, biochemical, IANBD-TnC fluorescence, triplicate (AID 504383);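 further: 0% = DMSO at 0.472 mM calcium and 100% = DMSO at 2.9 mM calcium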
Test context: IANBD-labeled cardiac RTF, Ca2+ sensitivity fluorescence; at 7.2 µM; scaled from EC20 to saturating calcium; tested at EC20 calcium, 0.472 mM
The campaign covered roughly 2,500 compounds. About 1,200 (48%) were called active.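 The calls were made as follows: active = mean activation above the low control average plus 3 SD, as set in the primary screen (cut at about 12% in these data); inactive = the rest.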 The set was probably picked from earlier hits. This is one part of the list.
Classes used: active, inactive

INSERT INTO assay_data (molecule, class) VALUES
  ('Cc1ccccc1C(=O)NC(=S)NC1CC1', 'inactive'),
  ('COC(=O)c1c(=O)n(O)c2ccc(OC)cc2[n+]1[O-]', 'active'),
  ('Cc1ccc(C)c(N2CCN(C(=O)CN3C(=S)NC(C)(C)CC3C)CC2)c1 (stereo not drawn)', 'active'),
  ('COc1cccc(/C=N/Nc2nnc(C)n2N)c1O', 'inactive'),
  ('Cc1onc(-c2ccccc2)c1C(=O)Nc1nc(-c2cc(F)ccc2F)cs1', 'inactive'),
  ('CC(C)(C)c1cc(NCc2ccccn2)n2ncc(-c3ccc(Cl)cc3)c2n1', 'inactive'),
  ('O=C(Nc1nc2c(s1)CN(Cc1ccccc1)CC2)c1cccc(S(=O)(=O)N2CCc3ccccc32)c1', 'inactive'),
  ('CCOc1cc(/C=C2\N=C(SC(C)C(N)=O)N(c3ccc(OC(F)F)cc3)C2=O)ccc1O (stereo not drawn)', 'active'),
  ('COC(=O)C1CSc2[nH]c(=O)sc2C1c1ccccc1 (stereo not drawn)', 'inactive'),
  ('COc1ccc(C2CC(c3ccncc3)=NN2c2ccc(S(N)(=O)=O)cc2)cc1 (stereo not drawn)', 'active'),
  ('COc1ccc(C(=O)/C=C/c2cn(CC(O)CN3CCOCC3)c3ccccc23)cc1 (stereo not drawn)', 'active'),
  ('CC(=O)Nc1ccc(NC(=O)C(C)OC(=O)/C(C#N)=C/c2ccc(N(C)C)cc2)cc1 (stereo not drawn)', 'active'),
  ('COc1ccc(C(=O)/C=C/c2cn(CC(O)CN3CCN(C)CC3)c3ccccc23)cc1OC (stereo not drawn)', 'active'),
  ('O=S(=O)(/N=C(/Nc1nc2ccccc2s1)c1ccccc1)c1ccc(F)cc1', 'inactive'),
  ('Cn1nc([N+](=O)[O-])c(C(C#N)c2ccccn2)c(Cl)c1=O (stereo not drawn)', 'inactive'),
  ('COc1cc(/C=C2/SC(=S)N(CCC(=O)Nc3ccccc3)C2=O)cc(OC)c1OC', 'inactive'),
  ('CCCC[C@H]1COCCS(=O)(=O)N1Cc1ccc(F)cc1', 'inactive'),
  ('Oc1c(N=NC(=S)Nc2ccccc2F)c2ccccc2n1Cc1ccc(F)cc1', 'inactive'),
  ('Cc1noc(C)c1C(=O)Nc1nc2ccccc2s1', 'active'),
  ('CC1(C)CC2CC(C)(CN2C(=S)Nc2ccccc2F)C1 (stereo not drawn)', 'inactive'),
  ('COc1cc(/C=C2\N=C3CCCCCN3C2=O)ccc1O', 'inactive'),
  ('COc1ccc(-c2nn(-c3ccccc3)cc2/C=N/NC(N)=S)cc1OC', 'active'),
  ('CC(=O)c1ccc(NC(=O)CN2C(=O)/C(=C/C=C/c3ccccc3)SC2=S)cc1', 'active'),
  ('Cc1nc2ccccc2n2c(O)c(CC(=O)O)cc12', 'active'),
  ('COc1cccc2c1C(=O)c1c(O)c3c(c(O)c1C2=O)CC(O)(C(C)=NNC(=O)c1ccc(Cl)c(Cl)c1)CC3OC1CC(N)C(O)C(C)O1 (stereo not drawn)', 'inactive'),
  ('Cc1ccc(Cn2cc(CCC(=O)O)c3ccccc32)cc1', 'active'),
  ('CC1=CC=CN2CC(O)CN=C12 (stereo not drawn)', 'active'),
  ('O=[N+]([O-])c1ccc(N2N=C(c3ccccc3)CC2c2ccccc2O)cc1 (stereo not drawn)', 'active'),
  ('COc1cc(/C=C/C(=O)c2ccc3c(c2)OCO3)cc(Cl)c1O', 'active'),
  ('Cc1c(C=O)c2ccccn2c1C(=O)c1cccs1', 'inactive'),
  ('CC(OC(=O)/C(C#N)=C/c1ccc(N(C)C)cc1)C(=O)N(C)Cc1ccccc1 (stereo not drawn)', 'active'),
  ('O=C(NC1CCCCC1)c1ccccc1NC(=S)NC(=O)C1CCC1', 'active'),
  ('CCOC(=O)c1c(=O)n(O)c2ccc(OC)cc2[n+]1[O-]', 'inactive'),
  ('CN(C)c1ccc(/C=C(\C#N)C(=O)c2ccccc2)cc1', 'inactive'),
  ('CCc1cc(=O)n2c([nH]c3ccccc32)c1C#N', 'inactive'),
  ('Nc1ccc(CCNc2ncnc3c2ncn3[C@@H]2O[C@H](CO)[C@@H](O)[C@H]2O)cc1', 'inactive'),
  ('Cc1nnc(NC(=O)CSc2ncnc3c2cnn3-c2ccccc2C)s1', 'active'),
  ('N#CC(C#N)=C1C=C2C=C(N3CCOCC3)CCC2CC1 (stereo not drawn)', 'inactive');

* * *

System: Troponin I, cardiac muscle (Homo sapiens) + Troponin T, cardiac muscle (Homo sapiens) + Troponin C, slow skeletal and cardiac muscles (Homo sapiens) (UniProt P19429+P45379+P63316)
Protocol: cardiac RTF calcium sensitivity activators, confirmation, biochemical, IANBD-TnC fluorescence, triplicate (AID 504383);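 further: 0% = DMSO at 0.472 mM calcium and 100% = DMSO at 2.9 mM calcium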
Test context: IANBD-labeled cardiac RTF, Ca2+ sensitivity fluorescence; at 7.2 µM; hits give high values; scaled from EC20 to saturating calcium; tested at EC20 calcium, 0.472 mM
About 1,200 (48%) of roughly 2,500 compounds were called active. So high a share suggests a set chosen from earlier hits. The list shows a part of the results.
Value kind: activation (%)

INSERT INTO results (compound, value_kind, numeric_readout) VALUES
  ('O=C1c2cccc3c(N4CCCCC4)ccc(c23)C(=O)N1c1cccc(O)c1', 'activation', 33.3),
  ('O=C1c2cccc3c(N4CCCCC4)ccc(c23)C(=O)N1c1ccc(O)cc1', 'activation', 10.7),
  ('CCOc1cc2c(cc1/C=C/c1noc(C)c1[N+](=O)[O-])OC(C)C2 (stereo unspecified)', 'activation', 330),
  ('COCC(=O)NC1CCN(S(=O)(=O)c2cccc(C(C)=O)c2)CC1', 'activation', 14.3),
  ('COc1ccc(N=Nc2nc3cc(Br)c(Br)cc3n2C)c(OC)c1', 'activation', 2020),
  ('CCn1cc(C(=O)NCCC(=O)NCCO)c(=O)c2cc3c(cc21)OCO3', 'activation', 57.2),
  ('COc1cc(/C=C/C(=O)CC(=O)/C=C/c2ccc(O)c(OC)c2)ccc1O', 'activation', 9.89),
  ('Cc1ccc(-c2ccc(CO)o2)cc1N', 'activation', 92.6),
  ('COC(=O)N1c2ccccc2CCc2ccccc21', 'activation', 8.65),
  ('CCC(=O)Nc1ccc(NC(=S)NC(=O)c2oc3ccccc3c2C)cc1', 'activation', 1.23),
  ('Nc1cnccc1C(=O)O', 'activation', 26),
  ('COC(=O)c1ccc(OC)c(OC2CCCC2)c1', 'activation', 6.45),
  ('Nc1ccc2cc3[nH]c4cc(N)ccc4c3nc2c1', 'activation', 13.7),
  ('CCOC(=O)N1CCC(NC(=O)c2cnn3c2NC(c2ccco2)CC3C(F)(F)F)CC1 (stereo unspecified)', 'activation', 18),
  ('O=C(Nc1cccc2c1N(C(=O)c1ccco1)CCC2)c1ccco1', 'activation', 25.9),
  ('CN1CCN(S(=O)(=O)c2cccc(C(=O)Oc3cccc(Br)c3)c2)CC1', 'activation', 11.4),
  ('CCOc1ccc(C(=O)NCC(=O)N2CCC3CCCCC3C2)cc1OCC (stereo unspecified)', 'activation', 167),
  ('COc1ccc(N=Nc2nc3ccc(Br)cc3n2C)cc1', 'activation', 10.6),
  ('O=C(/C=C/c1ccccc1)N/C(=C/c1ccccc1)C(=O)NCCCO', 'activation', 9.8),
  ('Cc1ccc([N+](=O)[O-])c(OCCCN2C(=O)NC(C)(C)C2=O)c1', 'activation', 11),
  ('COc1cc(/C=C/C=C2/CC/C(=C/C=C/c3ccc(O)c(OC)c3)C2=O)ccc1O', 'activation', 19.4),
  ('Oc1[nH]c2ccccc2c1N=Nc1ccc(F)cc1', 'activation', 109),
  ('O=C(/C=C(O)/C=C/c1ccc(O)cc1)/C=C/c1ccc(O)cc1', 'activation', 10.7),
  ('COc1ccc2c(Cl)c(C(=O)N/N=C3\CCCC(=O)C3)sc2c1', 'activation', 47.6),
  ('O=C(O)c1ccc(NC(=S)NC(=O)c2ccc(-c3ccccc3)cc2)cc1', 'activation', 78.4),
  ('Brc1ccc(-c2noc(-c3ccccn3)n2)o1', 'activation', 5.39),
  ('Cc1n[nH]c(C)c1N1C(=O)c2cccc3c(N4CCCCCC4)ccc(c23)C1=O', 'activation', 5.61),
  ('O=C1c2cccc3cccc(c23)C(=O)N1CC1CCN(S(=O)(=O)c2ccc(F)cc2)CC1', 'activation', 134),
  ('Cc1cccc(C)c1OCC(C)N (stereo unspecified)', 'activation', 15.2),
  ('O=C1CCCC(=NNC(=O)c2cc3ccccc3cc2O)C1', 'activation', 8.36),
  ('Cc1cccc(OCc2nn[nH]n2)c1C', 'activation', 9.03);
